# MEASUREMENT_PROTOCOL: Metabolic stability, pooled human liver microsome incubations
# EXPERIMENTAL_CONTEXT: pHLM, scaling factor 32 mg microsomal protein per gram liver
Note to self: Predicted in vivo hepatic clearance, CLH under 7 mL/min/kg means Criterion met, ties and anything higher get Criterion not met.

Here's what some known entries look like.
C=CCCCn1nc(C(=O)N[C@@H](C(=O)OC)C(C)(C)C)c2ccccc21 [(R)-MDMB-4en-PINACA (5)]	Criterion met
CC(C)[C@H](NC(=O)c1nn(Cc2ccc(F)cc2)c2ccccc12)C(N)=O [(S)-AB-FUBINACA (8)]	Criterion met
CC(C)[C@H](NC(=O)c1nn(CC2CCCCC2)c2ccccc12)C(N)=O [(S)-AB-[…] (11)]	Criterion met
COC(=O)[C@@H](NC(=O)c1nn(CCCCCF)c2ccccc12)C(C)C [(S)-5F-AMB-PINACA (10)]	Criterion not met
COC(=O)[C@@H](NC(=O)c1cn(CC2CCCCC2)c2ccccc12)C(C)C [(S)-AMB-CHMICA (9)]	Criterion met
C=CCCCn1cc(C(=O)N[C@@H](C(=O)OC)C(C)C)c2ccccc21 [(R)-AMB-4en-PICA (7)]	Criterion not met

// next entry
Q) Quick check: does COC(=O)[C@@H](NC(=O)c1nn(Cc2ccc(F)cc2)c2ccccc12)C(C)C [(S)-AMB-FUBINACA (1)] have Predicted in vivo hepatic clearance, CLH under 7 mL/min/kg?
A) Criterion not met
